- study system: Suppressor of tumorigenicity 14 protein (Homo sapiens, UniProt Q9Y5Y6)
- Sequence (Q9Y5Y6 whole entry): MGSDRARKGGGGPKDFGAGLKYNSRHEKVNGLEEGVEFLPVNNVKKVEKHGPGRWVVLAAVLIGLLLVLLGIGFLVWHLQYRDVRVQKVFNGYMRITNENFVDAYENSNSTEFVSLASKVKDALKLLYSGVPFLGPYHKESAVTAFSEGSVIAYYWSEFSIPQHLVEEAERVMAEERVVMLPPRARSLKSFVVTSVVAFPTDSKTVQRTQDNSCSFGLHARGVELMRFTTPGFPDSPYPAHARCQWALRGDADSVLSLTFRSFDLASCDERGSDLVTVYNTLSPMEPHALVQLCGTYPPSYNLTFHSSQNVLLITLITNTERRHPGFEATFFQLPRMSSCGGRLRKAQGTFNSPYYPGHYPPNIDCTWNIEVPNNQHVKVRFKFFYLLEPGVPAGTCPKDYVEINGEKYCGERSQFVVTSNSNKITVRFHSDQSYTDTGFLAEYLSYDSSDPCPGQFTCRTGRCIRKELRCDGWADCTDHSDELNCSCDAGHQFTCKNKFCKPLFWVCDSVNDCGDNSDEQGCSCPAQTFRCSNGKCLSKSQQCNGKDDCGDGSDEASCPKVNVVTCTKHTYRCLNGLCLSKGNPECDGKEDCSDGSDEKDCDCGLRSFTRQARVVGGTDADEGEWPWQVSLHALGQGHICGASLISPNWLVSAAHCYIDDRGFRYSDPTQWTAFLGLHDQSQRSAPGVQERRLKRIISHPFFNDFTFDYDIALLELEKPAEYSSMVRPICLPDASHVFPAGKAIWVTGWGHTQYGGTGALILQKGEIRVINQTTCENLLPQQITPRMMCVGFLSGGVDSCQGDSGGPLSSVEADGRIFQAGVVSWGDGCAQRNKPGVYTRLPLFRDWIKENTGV
// merged dataset of Ki values, system = Suppressor of tumorigenicity 14 protein (Homo sapiens, UniProt Q9Y5Y6), multiple refs
Give the value in nM but do not write nM after it.

// known answers, use as guide
>  <compound>
COc1ccc(-c2cccc(S(=O)(=O)N[C@@H](Cc3cccc(C(=N)N)c3)C(=O)N3CCN(C(=O)C4CCCCC4)CC3)c2)c(OC)c1

>  <quantity kind>
Ki

>  <recorded measurement>
43

$$$$
>  <compound>
CC(C)c1cc(C(C)C)c(S(=O)(=O)N[C@@H](Cc2cccc(C(=N)N)c2)C(=O)N2CCN(C(=O)CCN=C(N)N)CC2)c(C(C)C)c1

>  <quantity kind>
Ki

>  <recorded measurement>
57

$$$$
>  <compound>
CNC(=O)CCCC1CCN(C(=O)[C@H](Cc2cccc(C(=N)N)c2)NS(=O)(=O)c2cccc(-c3ccc(F)cc3)c2)CC1

>  <quantity kind>
Ki

>  <recorded measurement>
120

$$$$
>  <compound>
N=C(N)c1ccc(Oc2cc(C(=O)N[C@H]3CC[C@H](N)CC3)cc(Oc3ccc(C(=N)N)cc3)n2)cc1

>  <quantity kind>
Ki

>  <recorded measurement>
40

$$$$
>  <compound>
CCC(=O)Nc1cccc(S(=O)(=O)N[C@@H](Cc2cccc(C(=N)N)c2)C(=O)N2CCC(CCN)CC2)c1

>  <quantity kind>
Ki

>  <recorded measurement>
180

$$$$

Query: What does the record list as Ki for COc1ccc(-c2cccc(S(=O)(=O)NC(Cc3cccc(C(=N)N)c3)C(=O)N3CCC(CCN)CC3)c2)cc1 (racemic) ?
Response: 7

Query: What does the record list as Ki for N=C(N)c1ccc(Oc2ccc(N)c(Oc3ccc(C(=N)N)cc3)n2)cc1 ?
Response: 2900

Query: What does the record list as Ki for CC(C)(C)NC(=O)NC1CCN(C(=O)[C@H](Cc2cccc(C(=N)N)c2)NS(=O)(=O)c2cccc(-c3cc(F)c(CO)c(F)c3)c2)CC1 ?
Response: 24

Query: What does the record list as Ki for N=C(N)c1cccc(C[C@H](NS(=O)(=O)c2cccc(NC(=O)CCN)c2)C(=O)N2CCC(NC(=O)NC3CCCCC3)CC2)c1 ?
Response: 8

Query: What does the record list as Ki for N=C(N)c1cccc(C[C@H](NS(=O)(=O)c2cccc(NC(=O)C3CNC3)c2)C(=O)N2CCC(CCN)CC2)c1 ?
Response: 3

Query: What does the record list as Ki for CCOc1ccc(-c2cccc(S(=O)(=O)NC(Cc3cccc(C(=N)N)c3)C(=O)N3CCC(CCN)CC3)c2)cc1 (racemic) ?
Response: 6

Query: What does the record list as Ki for CCNC(=O)NCCC1CCN(C(=O)[C@H](Cc2cccc(C(=N)N)c2)NS(=O)(=O)c2cccc(NC(=O)CCN)c2)CC1 ?
Response: 12

Query: What does the record list as Ki for N=C(N)NCCC1CCN(C(=O)[C@H](Cc2cccc(C(=N)N)c2)NS(=O)(=O)c2ccc(Oc3ccccc3)nc2)CC1 ?
Response: 13

Query: What does the record list as Ki for N=C(N)c1cccc(C[C@H](NS(=O)(=O)c2cccc(-c3ccc(F)cc3)c2)C(=O)N2CCC(CCN)CC2)c1 ?
Response: 33

Query: What does the record list as Ki for N=C(N)c1ccc(Oc2ccc(C(=O)NC3CCN(C(=O)CCN)CC3)c(Oc3ccc(C(=N)N)cc3)n2)cc1 ?
Response: 600

Query: What does the record list as Ki for N=C(N)c1cccc(C[C@H](NS(=O)(=O)c2cccc(NCCCN)c2)C(=O)N2CCC(CCN)CC2)c1 ?
Response: 6.7

Query: What does the record list as Ki for N=C(N)c1cccc(C[C@H](NS(=O)(=O)c2ccc(Cc3ccncc3)cc2)C(=O)N2CCC(CCN=C(N)N)CC2)c1 ?
Response: 53

Query: What does the record list as Ki for N=C(N)c1ccc(Oc2ccc(NS(=O)(=O)c3ccc(F)cc3)c(Oc3ccc(C(=N)N)cc3)n2)cc1 ?
Response: 200
